- EXPERIMENTAL_DETAILS: NCI Yeast Anticancer Drug Screen. Data for the mlh1 rad18 strain (AID 175)
- CONDITIONS: S. cerevisiae mlh1 rad18 strain growth inhibition; at 50.0 µM (retest, dose inferred, filed as 5.0); hits give high values
The panel holds about 79,000 compounds, 15% with a hit somewhere; the sample as a whole holds those more often.
Classify as follows. Reported growth inhibition greater than or equal to 70%: Y. Reported growth inhibition below: N.

- Oc1cccc2cc(Cl)cnc12: N

stdin: Assess whether reported growth inhibition for "CN(C)CCNc1ccc2ncnc3c2c1C(=O)c1ccccc1-3" sits at 70% or higher.
stdout: Y

stdin: Assess whether reported growth inhibition for "O=C1C=C(Cl)C(=O)N1c1cccc(Cl)c1" sits at 70% or higher.
stdout: Y

stdin: Assess whether reported growth inhibition for "COc1cccc(/C=N/C(/N=C/c2cccc(OC)c2O)c2cccc(OC)c2O)c1O" sits at 70% or higher.
stdout: N

stdin: Assess whether reported growth inhibition for "S=c1sc2c(s1)SCCS2" sits at 70% or higher.
stdout: N

stdin: Assess whether reported growth inhibition for "CCO/C(C)=C(/C#N)C(N)=S" sits at 70% or higher.
stdout: Y

stdin: Assess whether reported growth inhibition for CCOC(=O)CC1(C(=O)OCC)c2[nH]c3ccccc3c2CCN1Cc1ccccc1 (stereo not drawn) sits at 70% or higher.
stdout: N

stdin: Assess whether reported growth inhibition for "COc1cc(/C=C2\CCC/C(=C\c3ccc(O)c(OC)c3)C2=O)ccc1O" sits at 70% or higher.
stdout: N

stdin: Assess whether reported growth inhibition for "Cc1c(C)c(C)c(CSC(=N)N)c(C)c1C" sits at 70% or higher.
stdout: Y

stdin: Assess whether reported growth inhibition for "CCCC(=O)Oc1ccc(/C=N/NC(N)=S)nc1" sits at 70% or higher.
stdout: N

stdin: Assess whether reported growth inhibition for O=C(c1ccc([N+](=O)[O-])cc1)C1N=NCC1c1ccccc1 (stereo not drawn) sits at 70% or higher.
stdout: N

stdin: Assess whether reported growth inhibition for "CC(C)(CCCCC(C)(C)[N+](C)(C)C)[N+](C)(C)C" sits at 70% or higher.
stdout: N

stdin: Assess whether reported growth inhibition for O=C1CSC(c2cccc(Cl)c2)N1c1ccc(-c2ccc(-n3c(-c4ccccc4)nc4ccccc4c3=O)cc2)cc1 (stereo not drawn) sits at 70% or higher.
stdout: Y

stdin: Assess whether reported growth inhibition for OC(CCNCc1ccccc1)c1ccc2ccccc2c1 (stereo not drawn) sits at 70% or higher.
stdout: Y

stdin: Assess whether reported growth inhibition for "CN1CCN(C(=O)/C=C/C(=O)c2ccccc2)CC1" sits at 70% or higher.
stdout: N

stdin: Assess whether reported growth inhibition for "CC(C)CN(CC(C)C)C(=O)c1ccc(Cl)c(Cl)c1" sits at 70% or higher.
stdout: Y

stdin: Assess whether reported growth inhibition for "CN(C)[C@@H]1C(=O)C(C(N)=O)=C(O)[C@@]2(O)C(=O)C3=C(O)c4c(O)cccc4C[C@H]3C[C@@H]12" sits at 70% or higher.
stdout: Y

stdin: Assess whether reported growth inhibition for "S=c1[nH]c2cc3ccccc3cc2[nH]1" sits at 70% or higher.
stdout: Y

stdin: Assess whether reported growth inhibition for CC(C)C(C)/C=C\C(C)C1CCC2C3=CC=C4CC(O)CCC4(C)C3CCC21C (stereo not drawn) sits at 70% or higher.
stdout: Y

stdin: Assess whether reported growth inhibition for "COC(=O)Nc1cn2ccc(C(Cl)=C(Cl)Cl)cc2n1" sits at 70% or higher.
stdout: Y

stdin: Assess whether reported growth inhibition for "O=C(NCCCNCCN1C(=O)c2cccc3cc([N+](=O)[O-])cc(c23)C1=O)c1cc(-c2ccccc2)nc2ccccc12" sits at 70% or higher.
stdout: Y
